Data origin: patent US20180320217A1

# Tested on: diaphorase
# runDescription: Effect of concentrations of tetrazolium salts on formation of formazan dyes (FIGS. 4A-4G)
# Format: biochemical
# settings: 15 mM NADH+H, 20 μg diaphorase, pH 7.5; FIGS. 4A to 4G
parameterMeasured: concentration of tetrazolium salt at which absorbance reached peaks (mM)
Use mM as the unit, but write only the number.

COc1cc([N+](=O)[O-])ccc1-[n+]1nc(-c2ccc(S(=O)(=O)[O-])cc2S(=O)(=O)[O-])nn1-c1ccc([N+](=O)[O-])cc1.[Na+] | 2
COc1cc([N+](=O)[O-])ccc1-[n+]1nc(-c2ccccc2S(=O)(=O)O)nn1-c1ccc([N+](=O)[O-])cc1 | 2

Shifting focus to the molecule that follows.
Data request: # input molecule: "COc1cc(-c2ccc(-[n+]3nc(-c4ccc(C(=O)N(CCS(=O)(=O)[O-])CCS(=O)(=O)[O-])cc4)nn3-c3nc4ccccc4s3)c(OC)c2)ccc1-[n+]1nc(-c2ccc(C(=O)N(CCS(=O)(=O)[O-])CCS(=O)(=O)[O-])cc2)nn1-c1nc2ccccc2s1.[Na+].[Na+]" ; wanted: its concentration of tetrazolium salt at which absorbance reached peaks
Data returned: 1
